Origin of the recorded values: paper PMC4423211

System Name: IL1RAPL1-ECD-His6, wild type (mouse)
Method: SPR; equilibrium; Biacore T200, 25 °C, 10 mM Hepes (pH 7.9), 150 mM NaCl, 0.05% Tween-20; IL1RAPL1-ECD-His6 amine-coupled on a CM5 chip (about 2,000 RU); PTPδ Ig1–Fn1 variants or mutants injected as analytes, 15.6 to 4,000 nM
pKd: −log10 of the molar value.

Substance: PTPδ Ig1–Fn1, meB replaced by Gln-Leu-Glu-Gln (domain or fragment)
pKd: 6.80
//
Substance: PTPδ Ig1–Fn1, meB replaced by Gly-Ser-Ser-Gly (domain or fragment)
pKd: 6.85
